# TARGET_OR_SYSTEM: T1, recombinant human Trop-2-his protein (ACCESSION NO.: NP_002344.2, AA 1-274) (human, UniProt P09758 27-274)
# T1 construct: range 27-274; also called recombinant human Trop-2 protein; recombinant human Trop-2 extracellular domain; not shown: his tag
# T1 sequence (looked up): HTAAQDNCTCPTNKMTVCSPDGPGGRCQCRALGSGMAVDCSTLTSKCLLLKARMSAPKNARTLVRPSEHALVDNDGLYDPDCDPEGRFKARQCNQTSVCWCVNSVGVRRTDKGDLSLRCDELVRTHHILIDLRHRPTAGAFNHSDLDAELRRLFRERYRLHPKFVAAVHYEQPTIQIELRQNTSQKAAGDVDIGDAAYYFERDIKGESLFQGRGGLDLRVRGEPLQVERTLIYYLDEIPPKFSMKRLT
# EXPERIMENT_DESCRIPTION: BLI, antibody on AHC sensor, Trop-2-his 60 nM
READOUT_LABEL: pKd
Give bare numbers, as −log10 of the molar value.

Consider h23-12-32 (antibody, human IgG1, kappa, V domains shown) VH: QVQLVQSGAEVKKPGASVKVSCKASGYTFTSYWMHWVRQAPGQGLEWMGEITPSDNYGSYNQKFKGRVTITRDTSTSTAYMELSSLRSEDTAVYYCARGHGNYVSFDYWGQGTLVTVSS VL: DIQMTQSPSSLSASVGDRVTITCRASQDISNYLNWYQQKPGKAPKLLIYYTSRLQSGVPSRFSGSGSGTDFTLTISSLQPEDFATYFCQQGYTLPPYTFGQGTKLEIKR . Its measured pKd is 9.22
